Cited source for all entries: patent US9102638B2

# Test system: SF-295
# Procedure text: In vitro cytotoxicity, NCI screen: SF-295 (CNS)
# Assay type: cell-based
# Setup conditions: Homo sapiens; SF-295, CNS panel, NCI protocol; read-out: GI50 values (μM conc.)
Readout label: GI50 (µM)
Record the value in µM, omitting the unit from your answer.

Below are worked cases with known answers.
- Compound: "COc1ccc(C2CC(c3cc(OC)c(OC)c(OC)c3)=NN2C(C)=O)cc1OCC(=O)Nc1nc2ccc(C(F)(F)F)cc2s1 (stereo not shown) [Compound 10i]"
  Experimental target: "SF-295"
  GI50 / µM: 3.06
- Compound: "COc1ccc(/C=C\\c2cc(OC)c(OC)c(OC)c2)cc1OCC(=O)Nc1nc2ccccc2s1 [Compound 8a]"
  Experimental target: "SF-295"
  GI50 / µM: 0.22
- Compound: "COc1ccc(/C=C\\c2cc(OC)c(OC)c(OC)c2)cc1OCC(=O)Nc1nc2ccc(OC(F)(F)F)cc2s1 [Compound 8j]"
  Experimental target: "SF-295"
  GI50 / µM: 3.7
- Compound: "COc1ccc(/C=C/C(=O)c2cc(OC)c(OC)c(OC)c2)cc1OCC(=O)Nc1nc2ccc(OC(F)(F)F)cc2s1 [Compound 9j]"
  Experimental target: "SF-295"
  GI50 / µM: 2.21
- Compound: "COc1ccc(/C=C\\c2cc(OC)c(OC)c(OC)c2)cc1OCC(=O)Nc1nc2ccc(C(F)(F)F)cc2s1 [Compound 8i]"
  Experimental target: "SF-295"
  GI50 / µM: 3.36
- Compound: "COc1ccc(/C=C\\c2cc(OC)c(OC)c(OC)c2)cc1OCC(=O)Nc1nc2ccc(F)cc2s1 [Compound 8e]"
  Experimental target: "SF-295"
  GI50 / µM: 4.29

# next compound below
So, COc1ccc2nc(NC(=O)COc3cc(/C=C\c4cc(OC)c(OC)c(OC)c4)ccc3OC)sc2c1 [Compound 8g] ? Its GI50 was 1.84

###

# Tested on: IGROV1
# Procedure text: In vitro cytotoxicity, NCI screen: IGROV1 (Ovarian)
# Type: cell-based
# Setup conditions: Homo sapiens, IGROV-1; IGROV1, Ovarian panel, NCI protocol; read-out: GI50 values (μM conc.)
Kindly apply the following: Condition met if GI50 is less than 4 µM, Condition not met in every other case.

Worked set:
- Molecule: "COc1ccc(/C=C\\c2cc(OC)c(OC)c(OC)c2)cc1OCC(=O)Nc1nc2ccc(OC(F)(F)F)cc2s1 [Compound 8j]"
  Assigned category: "Condition not met"
- Molecule: "COc1ccc(/C=C/C(=O)c2cc(OC)c(OC)c(OC)c2)cc1OCC(=O)Nc1nc2ccc(OC(F)(F)F)cc2s1 [Compound 9j]"
  Assigned category: "Condition met"
- Molecule: "COc1ccc(/C=C\\c2cc(OC)c(OC)c(OC)c2)cc1OCC(=O)Nc1nc2ccc(F)cc2s1 [Compound 8e]"
  Assigned category: "Condition not met"
- Molecule: "COc1ccc2nc(NC(=O)COc3cc(/C=C\\c4cc(OC)c(OC)c(OC)c4)ccc3OC)sc2c1 [Compound 8g]"
  Assigned category: "Condition not met"
- Molecule: "COc1ccc(/C=C\\c2cc(OC)c(OC)c(OC)c2)cc1OCC(=O)Nc1nc2ccc(C(F)(F)F)cc2s1 [Compound 8i]"
  Assigned category: "Condition not met"
- Molecule: "COc1ccc(C2CC(c3cc(OC)c(OC)c(OC)c3)=NN2C(C)=O)cc1OCC(=O)Nc1nc2ccc(C(F)(F)F)cc2s1 (stereo not shown) [Compound 10i]"
  Assigned category: "Condition not met"

Turning now to a further molecule:
# input Record COc1ccc(/C=C\c2cc(OC)c(OC)c(OC)c2)cc1OCC(=O)Nc1nc2ccccc2s1 [Compound 8a] : is its GI50 strictly below 4 µM?
# output Condition met

###

# Tested on: MCF7
# Procedure text: In vitro cytotoxicity, NCI screen: MCF7 (Breast)
# Format: cell-based
# Setup conditions: Homo sapiens; MCF7, Breast panel, NCI protocol; read-out: GI50 values (μM conc.)
Readout label: GI50

Record excerpt, results attached:
- Compound: "COc1ccc(/C=C\\c2cc(OC)c(OC)c(OC)c2)cc1OCC(=O)Nc1nc2ccc(OC(F)(F)F)cc2s1 [Compound 8j]"
  Test value: "2.89 µM"
- Compound: "COc1ccc(/C=C/C(=O)c2cc(OC)c(OC)c(OC)c2)cc1OCC(=O)Nc1nc2ccc(OC(F)(F)F)cc2s1 [Compound 9j]"
  Test value: "1.32 µM"

Next compound, please.
Reported GI50 of COc1ccc(/C=C\c2cc(OC)c(OC)c(OC)c2)cc1OCC(=O)Nc1nc2ccc(F)cc2s1 [Compound 8e] : 2.3 µM

###

Each entry below lists one item and its recorded GI50 value.
# Test system: PC-3
# Procedure text: In vitro cytotoxicity, NCI screen: PC-3 (Prostate)
# Format: cell-based
# Setup conditions: Homo sapiens; PC-3, Prostate panel, NCI protocol; read-out: GI50 values (μM conc.)
Response body: numeric value in µM, unit text excluded.

The following molecules have reported results that may help.
- Molecule: "COc1ccc(/C=C\\c2cc(OC)c(OC)c(OC)c2)cc1OCC(=O)Nc1nc2ccc(C(F)(F)F)cc2s1"
  GI50, µM: 4.32
- Molecule: "COc1ccc(C2CC(c3cc(OC)c(OC)c(OC)c3)=NN2C(C)=O)cc1OCC(=O)Nc1nc2ccc(C(F)(F)F)cc2s1 (stereo not shown) [Compound 10i]"
  GI50, µM: 2.92
- Molecule: "COc1ccc2nc(NC(=O)COc3cc(/C=C\\c4cc(OC)c(OC)c(OC)c4)ccc3OC)sc2c1"
  GI50, µM: 4.45
- Molecule: "COc1ccc(/C=C\\c2cc(OC)c(OC)c(OC)c2)cc1OCC(=O)Nc1nc2ccc(OC(F)(F)F)cc2s1"
  GI50, µM: 5.12
- Molecule: "COc1ccc(/C=C/C(=O)c2cc(OC)c(OC)c(OC)c2)cc1OCC(=O)Nc1nc2ccc(OC(F)(F)F)cc2s1"
  GI50, µM: 3.14
- Molecule: "COc1ccc(/C=C\\c2cc(OC)c(OC)c(OC)c2)cc1OCC(=O)Nc1nc2ccc(F)cc2s1"
  GI50, µM: 6.74

// below: GI50 requested for another molecule
Note to self: GI50 recorded for `COc1ccc(/C=C\c2cc(OC)c(OC)c(OC)c2)cc1OCC(=O)Nc1nc2ccccc2s1` was 0.18

###

# Test system: NCI-H226
# Procedure text: In vitro cytotoxicity, NCI screen: NCI-H226 (Non-small cell lung)
# Format: cell-based
# Setup conditions: Homo sapiens; NCI-H226, Non-small cell lung panel, NCI protocol; read-out: GI50 values (μM conc.)
Readout label: GI50 (µM)
Give the value in µM but do not write µM after it.

Summary line: COc1ccc(/C=C\c2cc(OC)c(OC)c(OC)c2)cc1OCC(=O)Nc1nc2ccc(C(F)(F)F)cc2s1 [Compound 8i] , NCI-H226, reported GI50 = 3.17

Here COc1ccc(/C=C\c2cc(OC)c(OC)c(OC)c2)cc1OCC(=O)Nc1nc2ccc(OC(F)(F)F)cc2s1 [Compound 8j] was tested on NCI-H226, and its GI50 came to 4.3

Fill in: NCI-H226 GI50 for COc1ccc(C2CC(c3cc(OC)c(OC)c(OC)c3)=NN2C(C)=O)cc1OCC(=O)Nc1nc2ccc(C(F)(F)F)cc2s1 (stereo not shown) [Compound 10i] = 2.22

###

Listed here: items and their measured GI50.
# System: MCF7
# Procedure text: In vitro cytotoxicity, NCI screen: MCF7 (Breast)
# Assay type: cell-based
# Setup conditions: Homo sapiens; MCF7, Breast panel, NCI protocol; read-out: GI50 values (μM conc.)
Please give a number only; it is taken to be in µM.

Worked examples follow.
- Compound: "COc1ccc(/C=C\\c2cc(OC)c(OC)c(OC)c2)cc1OCC(=O)Nc1nc2ccccc2s1 [Compound 8a]"
  GI50 / µM: 0.051
- Compound: "COc1ccc(C2CC(c3cc(OC)c(OC)c(OC)c3)=NN2C(C)=O)cc1OCC(=O)Nc1nc2ccc(C(F)(F)F)cc2s1 (stereo not shown) [Compound 10i]"
  GI50 / µM: 4.02
- Compound: "COc1ccc(/C=C\\c2cc(OC)c(OC)c(OC)c2)cc1OCC(=O)Nc1nc2ccc(C(F)(F)F)cc2s1 [Compound 8i]"
  GI50 / µM: 3.16

Reported GI50 ( COc1ccc2nc(NC(=O)COc3cc(/C=C\c4cc(OC)c(OC)c(OC)c4)ccc3OC)sc2c1 [Compound 8g] ) = 2.88

###

# Tested on: OVCAR-3
# Procedure text: In vitro cytotoxicity, NCI screen: OVCAR-3 (Ovarian)
# Assay type: cell-based
# Setup conditions: Homo sapiens; OVCAR-3, Ovarian panel, NCI protocol; read-out: GI50 values (μM conc.)
Field 'label' (enum: yes (1) / no (0)). Set to yes (1) when GI50 is strictly under 2 µM; else no (0).

Would you please look over these solved cases?
- Compound: "COc1ccc(/C=C\\c2cc(OC)c(OC)c(OC)c2)cc1OCC(=O)Nc1nc2ccc(C(F)(F)F)cc2s1"
  Experimental target: "OVCAR-3"
  Assigned category: "no (0)"
- Compound: "COc1ccc(/C=C/C(=O)c2cc(OC)c(OC)c(OC)c2)cc1OCC(=O)Nc1nc2ccc(OC(F)(F)F)cc2s1"
  Experimental target: "OVCAR-3"
  Assigned category: "yes (1)"
- Compound: "COc1ccc2nc(NC(=O)COc3cc(/C=C\\c4cc(OC)c(OC)c(OC)c4)ccc3OC)sc2c1"
  Experimental target: "OVCAR-3"
  Assigned category: "no (0)"
- Compound: "COc1ccc(/C=C\\c2cc(OC)c(OC)c(OC)c2)cc1OCC(=O)Nc1nc2ccc(F)cc2s1"
  Experimental target: "OVCAR-3"
  Assigned category: "no (0)"
- Compound: "COc1ccc(/C=C\\c2cc(OC)c(OC)c(OC)c2)cc1OCC(=O)Nc1nc2ccccc2s1"
  Experimental target: "OVCAR-3"
  Assigned category: "yes (1)"

# input In plain terms, does COc1ccc(C2CC(c3cc(OC)c(OC)c(OC)c3)=NN2C(C)=O)cc1OCC(=O)Nc1nc2ccc(C(F)(F)F)cc2s1 (stereo not shown) [Compound 10i] come in under 2 µM for GI50?
# output yes (1)

# input Threshold test, GI50 < 2 µM: `COc1ccc(/C=C\c2cc(OC)c(OC)c(OC)c2)cc1OCC(=O)Nc1nc2ccc(OC(F)(F)F)cc2s1`
# output no (0)
